All values here come from patent US12098145B2.

TARGET OR TEST SYSTEM: TRPML1 (Homo sapiens)
Construct: expressed in transfected cells; host or cells: HEK T-REx cells stably expressing GCaMP6f and TRPML1
RUN DESCRIPTION: Cellular TRPML1 assay (FLIPR, GCaMP6f calcium read-out)
Type: cell-based
SETTINGS: HEKT-REx/GCaMP6f/TRPML1 cells, FLIPR TETRA, kinetic response over 300 seconds; read-out: TRPML1 FLIPR pEC50 (converted)
Counter-ions that a name gives are not always drawn.
ASSAY METRIC: EC50

[[record]]
molecule = "CC1(C)CN(c2nc(C(=O)Nc3ccc(OC4CCCC4(F)F)c(F)c3)c(CC(F)(F)F)o2)C1 (stereo not shown)"
assay_metric = "EC50"
measured_value = "10 to 1000 nM"

[[record]]
molecule = "O=C(Nc1cc(F)c(OC2CC3C[C@@H]3C2)c(F)c1)c1nc(N2CC3CCC3C2)oc1CC(F)(F)F (stereo partly shown)"
assay_metric = "EC50"
measured_value = "10 to 1000 nM"

[[record]]
molecule = "CC1(CO)CN(c2nc(C(=O)Nc3ccc(OC4CC5CC(C5)C4)c(F)c3)c(CC(F)(F)F)o2)C1 (stereo not shown)"
assay_metric = "EC50"
measured_value = "10 to 1000 nM"

[[record]]
molecule = "O=C(Nc1cc(F)c(O[C@@H]2C[C@@H]3C[C@@H]3C2)c(F)c1)c1nc(N2CCCC2)oc1CN1CCCC1 [Example 308, hydrochloride]"
assay_metric = "EC50"
measured_value = "10 to 1000 nM"

[[record]]
molecule = "CC1CN(c2nc(C(=O)Nc3cc(F)c(OC4CC5C[C@H]5C4)c(F)c3)c(CC(F)(F)F)o2)CC(C)O1 (stereo partly shown)"
assay_metric = "EC50"
measured_value = "10000 to 100000 nM"

[[record]]
molecule = "Cc1oc(N2CCN(C3CC3)CC2)nc1C(=O)Nc1ccc(N2CCCCC2)c(F)c1"
assay_metric = "EC50"
measured_value = "10000 to 100000 nM"

[[record]]
molecule = "COC1(C)CN(c2nc(C(=O)Nc3cc(C)c(O[C@@H]4C[C@@H]5C[C@@H]5C4)c(F)c3)c(CC(F)(F)F)o2)C1"
assay_metric = "EC50"
measured_value = "10 to 1000 nM"


---

TARGET OR TEST SYSTEM: TRPML1 (Homo sapiens, UniProt Q9GZU1)
Construct: expressed in transfected cells; host or cells: HEK T-REx cells stably expressing GCaMP6f and TRPML1
Sequence (Q9GZU1 whole entry): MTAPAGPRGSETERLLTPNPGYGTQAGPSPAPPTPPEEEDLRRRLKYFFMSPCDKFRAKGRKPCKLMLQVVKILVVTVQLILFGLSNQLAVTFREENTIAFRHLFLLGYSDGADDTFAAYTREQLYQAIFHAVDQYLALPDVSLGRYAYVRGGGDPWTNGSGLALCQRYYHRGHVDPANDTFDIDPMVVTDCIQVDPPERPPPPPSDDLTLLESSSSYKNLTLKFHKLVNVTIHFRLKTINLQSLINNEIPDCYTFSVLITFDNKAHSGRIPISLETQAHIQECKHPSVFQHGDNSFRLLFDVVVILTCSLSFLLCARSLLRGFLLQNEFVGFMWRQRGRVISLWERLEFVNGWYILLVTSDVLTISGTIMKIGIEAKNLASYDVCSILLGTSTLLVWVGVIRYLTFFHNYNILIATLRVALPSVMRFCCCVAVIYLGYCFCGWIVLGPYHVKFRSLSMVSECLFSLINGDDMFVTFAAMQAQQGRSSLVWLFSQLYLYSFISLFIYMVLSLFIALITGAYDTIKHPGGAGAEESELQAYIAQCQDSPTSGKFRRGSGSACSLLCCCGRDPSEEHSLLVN
RUN DESCRIPTION: Cellular TRPML1 assay (FLIPR, GCaMP6f calcium read-out)
Format: cell-based
SETTINGS: HEKT-REx/GCaMP6f/TRPML1 cells, FLIPR TETRA, kinetic response over 300 seconds; read-out: TRPML1 FLIPR pEC50 (converted)
Listed next: entries and their corresponding EC50.
ASSAY METRIC: EC50

[[record]]
compound = "O=C(Nc1cc(F)c(O[C@@H]2C[C@@H]3C[C@@H]3C2)c(F)c1)c1nc(N2CCC3OCCC32)oc1CC(F)(F)F (stereo partly drawn) [Example 157]"
measured_value = "10 to 1000 nM"

[[record]]
compound = "CCc1oc(N2CC3CCC3C2)nc1C(=O)Nc1cc(F)c(OC2CC3C[C@H]3C2)c(F)c1 (stereo partly drawn) [Example 241]"
measured_value = "10 to 1000 nM"

[[record]]
compound = "CCc1oc(N2CC3(C2)CC(F)(F)C3)nc1C(=O)Nc1cc(F)c(N2CC3CC(C3)C2)c(F)c1 [Example 259]"
measured_value = "1000 to 10000 nM"

[[record]]
compound = "O=C(Nc1cc(F)c(OC2CC3CCC2C3)c(F)c1)c1nc(N2CCCC2)oc1CC(F)(F)F (stereo not drawn) [Example 141]"
measured_value = "10 to 1000 nM"

[[record]]
compound = "O=C(Nc1ccc(OC2CCCC2(F)F)c(F)c1)c1nc(N2CCOCC2)oc1CC(F)(F)F (stereo not drawn) [Example 6]"
measured_value = "1000 to 10000 nM"

[[record]]
compound = "CCC1(CC)CN(c2nc(C(=O)Nc3cc(F)c(OC4CCCC5(CC5)C4)c(F)c3)c(CC(F)(F)F)o2)C1 (stereo not drawn) [Example 132]"
measured_value = "1000 to 10000 nM"

[[record]]
compound = "O=C(Nc1cc(F)c(OC2CC3C[C@H]3C2)c(F)c1)c1nc(N2C[C@@H]3CCO[C@@H]3C2)oc1CC(F)(F)F (stereo partly drawn) [Example 180]"
measured_value = "10 to 1000 nM"

[[record]]
compound = "Cc1oc(N2CCC3(COC3)C2)nc1C(=O)Nc1ccc(N2CCCCC2)c(F)c1 [Example 90]"
measured_value = "1000 to 10000 nM"

[[record]]
compound = "O=C(Nc1cc(F)c(O[C@@H]2C[C@@H]3C[C@@H]3C2)c(F)c1)c1nc(N2CCC3(CC3)C2)oc1CCF [Example 288]"
measured_value = "10 to 1000 nM"

[[record]]
compound = "O=C(Nc1cc(F)c(OC2CC3(CCC3)C2)c(F)c1)c1nc(N2CCCC2)oc1CC(F)(F)F [Example 139]"
measured_value = "10000 to 100000 nM"

[[record]]
compound = "O=C(Nc1ccc(OCCC(F)(F)F)c(F)c1)c1nc(N2CCCC2)oc1CC(F)(F)F [Example 58]"
measured_value = "1000 to 10000 nM"

[[record]]
compound = "O=C(Nc1ccc(OC2CC3CC(C3)C2)c(F)c1)c1nc(N2CCCC2)oc1CC(F)(F)F (stereo not drawn) [Example 143]"
measured_value = "10 to 1000 nM"

[[record]]
compound = "CCC1(CC)CN(c2nc(C(=O)Nc3cc(F)c(OC4CC5C[C@H]5C4)c(F)c3)c(COC)o2)C1 (stereo partly drawn) [Example 295]"
measured_value = "10 to 1000 nM"

[[record]]
compound = "CCC1(CC)CN(c2nc(C(=O)Nc3cc(O)c(OC4CC5CC(C5)C4)c(Cl)c3)c(CC(F)(F)F)o2)C1 (stereo not drawn) [Example 261]"
measured_value = "10 to 1000 nM"

[[record]]
compound = "O=C(Nc1ccc(N2CCCCC2)c(C(F)(F)F)c1)c1nc(N2CC3(C2)CC(F)(F)C3)oc1CC(F)(F)F [Example 78]"
measured_value = "1000 to 10000 nM"

[[record]]
compound = "CC(C)Cc1oc(N2CCCC2)nc1C(=O)Nc1ccc(OC2CCCC2(F)F)c(F)c1 (stereo not drawn) [Example 111]"
measured_value = "1000 to 10000 nM"

[[record]]
compound = "CCC1(OC)CN(c2nc(C(=O)Nc3cc(O)c(O[C@@H]4C[C@@H]5C[C@@H]5C4)c(F)c3)c(CC(F)(F)F)o2)C1 [Example 268]"
measured_value = "1000 to 10000 nM"

[[record]]
compound = "COC1(C)CN(c2nc(C(=O)Nc3cc(C)c(O[C@@H]4C[C@@H]5C[C@@H]5C4)c(O)c3)c(CC(F)(F)F)o2)C1 [Example 263]"
measured_value = "10 to 1000 nM"

[[record]]
compound = "CCC1(CC)CN(c2nc(C(=O)Nc3cc(C)c(O[C@@H]4C[C@@H]5C[C@@H]5C4)c(F)c3)c(COC)o2)C1 [Example 293]"
measured_value = "10 to 1000 nM"

[[record]]
compound = "Cc1oc(-n2cccc2)nc1C(=O)Nc1ccc(N2CCCCC2)c(F)c1 [Example 113]"
measured_value = "1000 to 10000 nM"

[[record]]
compound = "COCc1oc(N2CCCC2)nc1C(=O)Nc1cc(F)c(N2CCCCC2)c(F)c1 [Example 102]"
measured_value = "1000 to 10000 nM"

[[record]]
compound = "O=C(Nc1ccc(O[C@@H]2C[C@@H]3C[C@@H]3C2)c(F)c1)c1nc(N2CC3CCC3C2)oc1CC(F)(F)F (stereo partly drawn) [Example 161]"
measured_value = "10 to 1000 nM"

[[record]]
compound = "O=C(Nc1ccc(OCC2CCCC2(F)F)c(F)c1)c1nc(N2CCCC2)oc1CC(F)(F)F (stereo not drawn) [Example 53]"
measured_value = "1000 to 10000 nM"

[[record]]
compound = "CC1CCC(Oc2ccc(NC(=O)c3nc(N4CCCC4)oc3CC(F)(F)F)cc2F)C1 (stereo not drawn) [Example 50]"
measured_value = "1000 to 10000 nM"

[[record]]
compound = "CCc1oc(N2CC(C)(CO)C2)nc1C(=O)Nc1cc(C)c(OC2CC3CC(C3)C2)c(F)c1 (stereo not drawn) [Example 224]"
measured_value = "10 to 1000 nM"

[[record]]
compound = "CCc1oc(N2CC(CC)(OC)C2)nc1C(=O)Nc1cc(F)c(OC2CCOC2)c(F)c1 (stereo not drawn) [Example 234]"
measured_value = "1000 to 10000 nM"

[[record]]
compound = "CN(c1ccc(NC(=O)c2nc(N3CCCC3)oc2CC(F)(F)F)cc1F)C1CCCC1(F)F (stereo not drawn) [Example 82]"
measured_value = "1000 to 10000 nM"

[[record]]
compound = "O=C(Nc1ccc(OC2CCCC2)c(F)c1)c1nc(N2CCC3(CC3)C2)oc1CC(F)(F)F [Example 57]"
measured_value = "1000 to 10000 nM"

[[record]]
compound = "CCN(C)Cc1oc(N2CC(CC)(OC)C2)nc1C(=O)Nc1cc(F)c(O[C@@H]2C[C@@H]3C[C@@H]3C2)c(F)c1 [Example 304]"
measured_value = "10 to 1000 nM"

[[record]]
compound = "CCC1(OC)CN(c2nc(C(=O)Nc3cc(F)c(OC4C[C@@H]5CC[C@H]4C5)c(F)c3)c(CC(F)(F)F)o2)C1 (stereo partly drawn) [Example 151]"
measured_value = "10 to 1000 nM"

